The binders listed here are annotated with their pKd.
# Assayed system: Human BCMA (human) (UniProt Q02223)
# Experiment description: SPR, IgG immobilised, huBCMA analyte, 37 C
Here pKd is given on a logarithmic scale as minus log10 of the concentration in mol/L.

Binder	pKd
L3.PY/L3.KY/H2.LT (antibody, V domains shown, IgG) VH: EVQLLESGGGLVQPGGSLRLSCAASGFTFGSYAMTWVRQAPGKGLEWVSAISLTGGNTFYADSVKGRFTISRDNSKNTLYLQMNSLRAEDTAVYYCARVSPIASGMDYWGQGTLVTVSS VL: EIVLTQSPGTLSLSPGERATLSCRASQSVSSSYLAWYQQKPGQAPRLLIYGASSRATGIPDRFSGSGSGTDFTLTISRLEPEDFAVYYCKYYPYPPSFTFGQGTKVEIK	9.51

Prompt line: Give the measured pKd of L3.PY/L1.FF/H3.AE (antibody, V domains shown, IgG) VH: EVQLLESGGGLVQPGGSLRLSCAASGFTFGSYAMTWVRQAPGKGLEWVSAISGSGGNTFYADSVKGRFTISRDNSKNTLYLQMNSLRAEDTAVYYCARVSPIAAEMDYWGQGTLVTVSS VL: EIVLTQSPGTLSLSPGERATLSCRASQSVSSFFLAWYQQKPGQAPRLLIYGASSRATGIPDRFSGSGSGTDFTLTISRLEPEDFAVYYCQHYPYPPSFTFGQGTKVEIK .
Response line: 9.16
